test-target: human TLR2 (Homo sapiens, UniProt O60603)
Sequence (O60603 21-784): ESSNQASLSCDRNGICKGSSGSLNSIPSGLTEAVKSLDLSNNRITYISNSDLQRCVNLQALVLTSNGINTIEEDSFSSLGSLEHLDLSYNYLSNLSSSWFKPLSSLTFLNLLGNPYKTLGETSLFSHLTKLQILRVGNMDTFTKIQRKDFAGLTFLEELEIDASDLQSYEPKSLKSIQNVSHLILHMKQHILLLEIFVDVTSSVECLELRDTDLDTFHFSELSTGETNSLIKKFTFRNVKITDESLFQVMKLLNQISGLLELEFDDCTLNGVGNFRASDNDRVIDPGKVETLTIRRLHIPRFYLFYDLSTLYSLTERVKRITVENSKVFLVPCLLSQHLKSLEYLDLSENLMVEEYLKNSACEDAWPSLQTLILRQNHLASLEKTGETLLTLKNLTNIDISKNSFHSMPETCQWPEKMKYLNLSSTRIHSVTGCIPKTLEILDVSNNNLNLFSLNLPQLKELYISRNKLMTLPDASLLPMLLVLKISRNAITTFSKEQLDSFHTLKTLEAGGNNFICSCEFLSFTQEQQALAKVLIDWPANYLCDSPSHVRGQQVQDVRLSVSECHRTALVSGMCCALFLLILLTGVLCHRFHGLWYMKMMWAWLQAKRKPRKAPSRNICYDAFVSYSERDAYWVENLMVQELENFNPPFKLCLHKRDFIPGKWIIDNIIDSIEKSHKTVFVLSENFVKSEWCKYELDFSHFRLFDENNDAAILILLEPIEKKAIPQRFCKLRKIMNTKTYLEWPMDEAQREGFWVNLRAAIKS
procedure-summary: Reporter gene assay: HEK 293 cells stably transfected with human TLR2 and NF-kB-driven luciferase reporter
test-parameters: HEK293, 7 h, read-out: Hek-TLR2 (% Eff)

smiles-text: CCCCCCCCCCCCOC[C@H](CSC[C@H](N)C(=O)NCCOCCOCCC(F)(F)P(=O)(O)O)NC(=O)CCCCCCCCCCC
test-target: human TLR2 (Homo sapiens, UniProt O60603)
Emax: 15%
--
smiles-text: CCCCCCCCCCCC(=O)OC[C@H](CSC[C@H](N)C(=O)NCCc1cccc(O)c1)OC(=O)CCCCCCCCCCC
test-target: human TLR2 (Homo sapiens, UniProt O60603)
Emax: 51%
--
smiles-text: CCCCCCCCCCCC(=O)OC[C@H](CSC[C@H](N)C(=O)N[C@@H](CC)COCC(=O)O)OC(=O)CCCCCCCCCCC
test-target: human TLR2 (Homo sapiens, UniProt O60603)
Emax: 118%
--
smiles-text: CCCCCCCCCCCC(=O)OC[C@H](CSC[C@H](N)C(=O)NCCc1ccc(OCCCP(=O)(O)O)cc1)OC(=O)CCCCCCCCCCC
test-target: human TLR2 (Homo sapiens, UniProt O60603)
Emax: 107%
--
smiles-text: CCCCCCCCCCCCOC[C@H](CSC[C@H](N)C(=O)NCCOCCOCCC(F)(F)P(=O)(O)O)OCCCCCCCCCCCC
test-target: human TLR2 (Homo sapiens, UniProt O60603)
Emax: 60%
--
smiles-text: CCCCCCCCCCCCOC[C@H](CSC[C@H](N)C(=O)NCCOCCOCCOCCOCCP(=O)(O)O)NC(=O)CCCCCCCCCCC
test-target: human TLR2 (Homo sapiens, UniProt O60603)
Emax: 20%
--
smiles-text: CCCCCCCCCCCCOC[C@H](CSC[C@H](N)C(=O)NCCOCCOCCOCCP(=O)(O)O)OC(=O)NCCCCCCCCCC
test-target: human TLR2 (Homo sapiens, UniProt O60603)
Emax: 47%

====

test-target: human TLR2 (Homo sapiens, UniProt O60603)
procedure-summary: Reporter gene assay: HEK 293 cells stably transfected with human TLR2 and NF-kB-driven luciferase reporter
test-parameters: HEK293, 7 h, read-out: Hek-TLR2 (% Eff)

smiles-text: CCCCCCCCCCCC(=O)OC[C@H](CSC[C@H](N)C(=O)NCCCCN)OC(=O)CCCCCCCCCCC
Emax: 111%

smiles-text: CCCCCCCCCCNC(=O)OC[C@H](CSC[C@H](NC(=O)CCCCCC)C(=O)NCCOCCOCCOCCP(=O)(O)O)OC(=O)NCCCCCCCCCC
Emax: 71%

smiles-text: CCCCCCCCCCCC(=O)OC[C@H](CSC[C@H](N)C(=O)NCCc1ccc(OCCOCCO)cc1)OC(=O)CCCCCCCCCCC
Emax: 61%

smiles-text: CCCCCCCCCCCC(=O)OC[C@H](CSC[C@H](N)C(=O)NC(C)(C)CO)OC(=O)CCCCCCCCCCC
Emax: 54%

====

Recorded Emax by entry
test-target: human TLR2 (Homo sapiens)
procedure-summary: Reporter gene assay: HEK 293 cells stably transfected with human TLR2 and NF-kB-driven luciferase reporter
test-parameters: HEK293, 7 h, read-out: Hek-TLR2 (% Eff)

compound: CCCCCCCCCCCC(=O)OC[C@H](CSC[C@H](N)C(=O)NCCCCCCN)OC(=O)CCCCCCCCCCC [Example 56]
Emax: 107%

compound: CCCCCCCCCCCCOC[C@H](CSC[C@H](N)C(=O)N[C@@H](C)COCCOCCOCCP(=O)(O)O)NC(=O)CCCCCCCCCCC [Example 28]
Emax: 37%

compound: CCCCCCCCCCCC(=O)OC[C@H](CSC[C@H](N)C(=O)NCCCN1CCOCC1)OC(=O)CCCCCCCCCCC [Example 59]
Emax: 121%

compound: CCCCCCCCCCNC(=O)OC[C@H](CSC[C@H](NC(=O)CCCCC)C(=O)NCCOCCOCCOCCP(=O)(O)O)OC(=O)NCCCCCCCCCC [Example 92]
Emax: 99%

compound: CCCCCCCCCCCCCC(=O)OC[C@H](CSC[C@H](N)C(=O)NCCOCCOCCOCCP(=O)(O)O)OC(=O)CCCCCCCCCCCCC [Example 25]
Emax: 99%

compound: CCCCCCCCCCCCOC[C@H](CSC[C@H](N)C(=O)N[C@@H](CO)C(=O)NCCOCCOCCP(=O)(O)O)OCCCCCCCCCCCC [Example 80]
Emax: 52%

compound: CCCCCCCCCCCC(=O)OC[C@H](CSC[C@H](N)C(=O)N[C@@H](CO)C(=O)NCCOCCOCCOCCC(=O)O)OC(=O)CCCCCCCCCCC [Example 88]
Emax: 145%

compound: CCCCCCCCCCCC(=O)OC[C@H](CSC[C@H](N)C(=O)NCCCC(C)(C)CO)OC(=O)CCCCCCCCCCC [Example 72]
Emax: 49%

compound: CCCCCCCCCCCCOC[C@H](CSC[C@H](N)C(=O)NCCOCCOCCOCCP(=O)(O)O)OCCCCCCCCCCCC [Example 20]
Emax: 84%

compound: CCCCCCCCCCCC(=O)OC[C@H](CSC[C@H](N)C(=O)NCCc1ccc(OCCC(C)C)cc1)OC(=O)CCCCCCCCCCC [Example 44]
Emax: 72%

compound: CCCCCCCCCCCCCCCCOC[C@H](CSC[C@H](N)C(=O)NCCOCCOCCOCCP(=O)(O)O)OCCCCCCCCCCCCCCCC [Example 76]
Emax: 109%

compound: CCCCCCCCNC(=O)OC[C@H](CSC[C@H](N)C(=O)NCCOCCOCCOCCP(=O)(O)O)OC(=O)NCCCCCCCC [Example 38]
Emax: 107%

compound: CCCCCCCCCCCC(=O)OC[C@H](CSC[C@H](N)C(=O)NCCc1ccc(Oc2ccccc2)cc1)OC(=O)CCCCCCCCCCC [Example 68]
Emax: 77%

compound: CCCCCCCCCCCC(=O)OC[C@H](CSC[C@H](N)C(=O)NCCOCCOS(=O)(=O)O)OC(=O)CCCCCCCCCCC [Example 91]
Emax: 120%

compound: CCCCCCCCCCCC(=O)OC[C@H](CSC[C@H](N)C(=O)NC(CC)COC)OC(=O)CCCCCCCCCCC (stereo partly shown) [Example 63]
Emax: 96%

compound: CCCCCCCCCCCCOC[C@H](CSC[C@H](N)C(=O)NCCOCCOCCOCCOCCP(=O)(O)O)OCCCCCCCCCCCC [Example 78]
Emax: 35%

The measurements presented in this section are drawn from patent US9365506B2.
